B1: LINE1-mini (parent)
chain: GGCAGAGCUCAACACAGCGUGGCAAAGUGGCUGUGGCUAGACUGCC

# Variants of: B1
# measurement_notes: self-cleavage, relative activity (ratio to wild type); higher = more cleavage; in vitro, sequencing; the parent is a self-cleaving ribozyme
Please use True whenever self-cleavage is not below 0.09, and False whenever it is.

Completed entries (count: 7):
> print(dat)
     variant  class.name
1  U38G A39G       False
2   G7U C37U       False
3  U43A C45U        True
4  G27U G36C        True
5  C31G C37G       False
6  G30C G40A        True
7  C10G G35A       False

Prompt: Quick check: does A14C G30C have self-cleavage greater than or equal to 0.09?
Completion: False
